Tested on: Canis familiaris
Assay: Mean percent peak inhibition of histamine-stimulated gastric acid secretion in the heidenhain pouch dog following a single dose of 4 umol/kg through oral administration.
Assay type: functional
Conditions: Canis lupus familiaris, Stomach
READOUT_KIND: inhibition in vivo at 4 µmol/kg (%)
Please reply with the bare figure in % and do not write the unit itself.

{"MOLECULE": "CCCC(=O)c1cnc2c(OCCCNC(C)=O)cccc2c1Nc1c(C)cccc1C", "inhibition in vivo at 4 µmol/kg (%)": 40}
{"MOLECULE": "CCCC(=O)c1cnc2c(CCCO)cccc2c1Nc1ccccc1C", "inhibition in vivo at 4 µmol/kg (%)": 48}
{"MOLECULE": "CCCC(=O)c1cnc2c(OC)cccc2c1Nc1ccccc1OC", "inhibition in vivo at 4 µmol/kg (%)": 18}
{"MOLECULE": "CCC(=O)c1cnc2c(OCCO)cccc2c1Nc1ccc(F)cc1C", "inhibition in vivo at 4 µmol/kg (%)": 72}
{"MOLECULE": "CCCC(=O)c1cnc2c(CO)cccc2c1Nc1ccc(O)cc1C", "inhibition in vivo at 4 µmol/kg (%)": 29}
{"MOLECULE": "COCCOc1cccc2c(Nc3ccccc3C)c(C(=O)C(C)C)cnc12", "inhibition in vivo at 4 µmol/kg (%)": 86}
{"MOLECULE": "CCC(=O)c1cnc2c(OCCOC)cccc2c1Nc1ccccc1C", "inhibition in vivo at 4 µmol/kg (%)": 66}
{"MOLECULE": "CCCC(=O)c1cnc2c(OC)cccc2c1Nc1ccc(OC(C)=O)cc1C", "inhibition in vivo at 4 µmol/kg (%)": 44}
{"MOLECULE": "Cc1cc(F)ccc1Nc1c(C(=O)C(C)C)cnc2c(CO)cccc12", "inhibition in vivo at 4 µmol/kg (%)": 42}
{"MOLECULE": "CCCC(=O)c1cnc2c(C(C)O)cccc2c1Nc1ccccc1C (stereo unspecified)", "inhibition in vivo at 4 µmol/kg (%)": 49}

### Prompt # inhibition in vivo at 4 µmol/kg lookup, item `CCCC(=O)c1cnc2c(OCCO)cccc2c1Nc1ccc(F)cc1C`
### Response 80
